// values below are reported TGI
Test system: SK-MEL-5 melanoma
Assay Info: NCI tumour cell line growth inhibition, 48 h

Problem: Query for SK-MEL-5 melanoma: what TGI does the record show for Cn1ncc2c(=O)[nH]c(-c3ccccc3)nc21 ?
Solution: > 100 µM

Problem: What about this compound? O=C1C2c3[nH]c4ccccc4c3C3CCC(c4ccccc4)CC3C2C(=O)N1c1ccccc1 (stereo not drawn)
Solution: > 100 µM

---

System: CCRF-CEM leukemia
Assay Info: NCI tumour cell line growth inhibition, 48 h
Attribute Measured: TGI

# Compound, TGI
measured = [
    ("O=C(CC(C(=O)c1cccs1)c1ccsc1)c1ccc(Cl)cc1 (stereo not given)", "> 100 µM"),
]

Problem: TGI for O=c1/c(=C/c2ccccc2O)sc2nc3ccccc3n12 ?
Solution: 45.6 µM

Problem: What about this compound? O=C(CC(O)c1cccnc1)CC(O)c1cccnc1 (stereo not given)
Solution: 20.9 µM

Problem: What about this compound? CSC1=C(C(=O)N(COCC[Si](C)(C)C)c2ccccc2Br)CCC(C(C)(C)C)C1 (stereo not given)
Solution: > 100 µM

Problem: What about this compound? COc1ccc(OC)c2sc(N3C(=O)/C(=C/c4ccc(SC)cc4)N=C3c3ccccc3)nc12
Solution: 22.2 µM

---

Tested on: K-562 leukemia
Assay Info: NCI tumour cell line growth inhibition, 48 h; in the data active = GI50 below about 0.43 µM; inactive = the rest
Give one outcome, nothing more. List: active, inactive

Known results for compounds:
# Smiles, Target, Category Label
measured = [
    ("COc1ccc(-c2cnc(SCC(=O)c3c(C)n(C)n(-c4ccccc4)c3=O)n2-c2ccc(OC)cc2)cc1", "K-562 leukemia", "inactive"),
    ("COc1ccc(/C=C(/C(=O)N2CCN(c3ccc(C)cc3)CC2)c2cc(OC)c(OC)c(OC)c2)cc1N", "K-562 leukemia", "active"),
    ("CC[C@]12C=CCN3CC[C@@]4(c5ccc(OC)cc5N(C)[C@H]4[C@@](O)(C(=O)OC)[C@@H]1OC(=O)CCCC[P+](c1ccccc1)(c1ccccc1)c1ccccc1)[C@@H]32", "K-562 leukemia", "inactive"),
    ("CC/C=C\\C[C@H](O)C/C=C1/C(=O)C=C[C@@H]1C/C=C\\CCCC(=O)OCCS(=O)(=O)c1ccccc1", "K-562 leukemia", "inactive"),
    ("COc1ccc(NC(=O)COc2ccccc2)c(C(N)=O)c1", "K-562 leukemia", "active"),
]

Problem: For CC(C)C[C@H](NC(=O)[C@H](Cc1ccccc1)NC(=O)c1cnccn1)B(O)O , what call appears in the results of this test?
Solution: active

Problem: What about this compound? COc1ccc2nc(-c3ccc(Cl)cc3)cc(-c3nnc(SCC(=O)Nc4ccc(/C(C)=N\O)cc4)o3)c2c1
Solution: inactive

Problem: What about this compound? Cc1cc(N2CCCCC2)nc(NCc2cc(Nc3ccnc4cc(Cl)ccc34)ccc2F)n1
Solution: inactive

---

Test system: HCC-2998 colon
Assay Info: NCI tumour cell line growth inhibition, 48 h
Attribute Measured: TGI

The examples below pair each entry with its known result.
# Molecule, TGI
measured = [
    ("COc1ccc(/C=C(/C(=O)N2CCN(c3ccc(C)cc3)CC2)c2cc(OC)c(OC)c(OC)c2)cc1N", "> 100 µM"),
    ("COc1ccc2nc(-c3ccc(Cl)cc3)cc(-c3nnc(SCC(=O)Nc4ccc(/C(C)=N\\O)cc4)o3)c2c1", "31.5 µM"),
    ("CCCCCCCCCCCCCCCCCc1cc(Cl)nc(Cl)n1", "> 100 µM"),
    ("Cc1ccc(N/N=C/C2=CC(C)(C)C(C#N)(C#N)C(O)=C2C#N)cc1", "> 100 µM"),
    ("COc1cccc(-c2cc(C(=O)Nc3ccc(Cl)cc3)nc(N)n2)c1", "> 100 µM"),
]

Problem: TGI for CCCCCCCCCCCCCCCCCCNc1ccn(C2OC(COP(=O)(O)OCC(COP(=O)(O)OCC3OC(n4cc(C)c(=O)[nH]c4=O)CC3N=[N+]=[N-])OCCCCCCCCCCCCCCCCCC)C(O)C2O)c(=O)n1 (centres undefined) ?
Solution: > 100 µM

Problem: What about this molecule? COc1ccc(OC)c2sc(N3C(=O)/C(=C/c4ccc(SC)cc4)N=C3c3ccccc3)nc12
Solution: > 100 µM

Problem: What about this molecule? Cn1ncc2c(=O)[nH]c(-c3ccccc3)nc21
Solution: > 100 µM

Problem: What about this molecule? CCC(C#N)NCc1ccc(CNC(C#N)CC)cc1 (centres undefined)
Solution: > 100 µM
